Biological target: T1, mouse CD276 protein (mouse, UniProt Q8VE98 29-316)
T1 construct: whole, on cells; also called mCD276; CHO-S-mCD276
T1 sequence (looked up): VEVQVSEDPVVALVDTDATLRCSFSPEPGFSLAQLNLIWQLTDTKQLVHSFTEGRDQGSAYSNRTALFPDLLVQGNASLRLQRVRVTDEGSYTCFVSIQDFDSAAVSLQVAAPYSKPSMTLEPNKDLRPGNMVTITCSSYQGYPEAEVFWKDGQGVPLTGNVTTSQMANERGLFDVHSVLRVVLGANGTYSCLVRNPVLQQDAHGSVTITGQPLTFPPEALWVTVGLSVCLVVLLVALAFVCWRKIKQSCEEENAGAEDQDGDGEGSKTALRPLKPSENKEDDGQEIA
Assay: FACS on CHO-S-mCD276 cells
Below, each entry is listed with its recorded FACS MFI.
The response must contain the number and no unit.

Some binders with recorded FACS MFI:
2-A7-B10-A3 (antibody, V domains shown, mouse monoclonal antibody (hybridoma)) VH: QVQLQQSGAELVRPGVSVKISCKGSGYTFTDYAMHWVKQSHAKSLEWIGVINTNYVNTSYNQKFKGKATMTVDKSSSTAFMELARLTSEDSAIYYCARGGKYGNYVFFFAYWGQGTLVTVSA VL: DIQMTQTTSSLSASLGDRVTISCRASQDISNYLNWYQQKPDGTVKLLIYYTSRLHSGVPSRFSGSGSGTDYSLTISNLEQEDIATYFCQQGNTLPYTFGGGTKLEIK	2040
14-E7-G9-D4 (antibody, V domains shown, mouse monoclonal antibody (hybridoma)) VH: EVQLQQSGPELVKPGASVKMSCKASGYTFTNYIMHWVKQKPGQGLEWIGYINPYNDGIKYNEKFKGKATLTSDKSSSTAYMELSSLTSEDSAVYYCTRWGNYVFYYTMDYWGQGTSVTVSS VL: QIVLSQSPAILSASPGEKVTMTCRASSSVSYMHWYQQKPGSSPKPWIYATSNLASGVPARFSGSGSGTSYSLTISRMEAEDAATYYCQQWSGNPPLTFGAGTKLELK	1300

Now let's try a different one.
Ask | Requested read-out: FACS MFI. Entry: 18-F9-D8-G7 (antibody, V domains shown, mouse monoclonal antibody (hybridoma)) VH: EVQLQQSGPELVRPGVSVKISCKGSGYTFTDYAMHWVKQSHAQSLEWIGIINTYSGDTNYNQKFKGKATMTVDKSSSTAYMGLARLTSEDSAIFYCARGGGNYPYWYFDVWGAGTTVTVSS VL: ENVLTQSPAIMSASPGEKVTMTCRASSSVSSSYLHWYQQKSGDSPKLWIYSTSNLASGVPARFSGSGSGTSYSLTISSVEAEDAATYYCQQFSVYPLTFGAGTKLEIK
Reply | 20600
